tgt: human TREK-1 (Homo sapiens)
Construct: expressed in transfected cells
Sequence (O95069 1-426): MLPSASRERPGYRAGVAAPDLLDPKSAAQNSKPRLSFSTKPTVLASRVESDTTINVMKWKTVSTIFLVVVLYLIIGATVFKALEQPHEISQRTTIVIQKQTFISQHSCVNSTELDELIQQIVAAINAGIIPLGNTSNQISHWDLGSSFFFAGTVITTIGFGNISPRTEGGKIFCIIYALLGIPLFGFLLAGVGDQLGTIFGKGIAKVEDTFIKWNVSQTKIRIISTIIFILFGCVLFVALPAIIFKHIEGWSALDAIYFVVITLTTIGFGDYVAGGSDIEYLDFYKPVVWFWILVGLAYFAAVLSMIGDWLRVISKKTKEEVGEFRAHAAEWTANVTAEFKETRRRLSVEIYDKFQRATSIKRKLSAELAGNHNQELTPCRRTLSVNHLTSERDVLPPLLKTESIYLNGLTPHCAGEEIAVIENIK
assay summary: TREK-1 Thallium (Tl+) flux assay, Method 1
Assay type: cell-based
reported conditions: TREK-1 Thallium (Tl+) flux assay; values without footnote *12 are Method 1
metric: IC50 (nM)
Supply the numeric figure in nM, leaving out any unit text.

IC50 for CC(=O)N1CCC(CCn2ncc(Cl)c2C(=O)Nc2ncc(C#Cc3ccccc3)cc2C)CC1 is 240

IC50 for Cc1cc(C#Cc2ccc(F)cc2)cnc1NC(=O)c1c(Cl)cnn1C1CCN(C(=O)C2COCCO2)CC1 (stereo not shown) is 150

IC50 for CC(C)C(=O)N[C@H]1C[C@@H](n2ncc(Cl)c2C(=O)Nc2ncc(C#Cc3ccccc3)cc2F)C1 is 210

IC50 for Cc1cc(C#Cc2ccc(F)cc2)cnc1NC(=O)c1c(Cl)cnn1[C@H]1CC[C@@H](NC(=O)C2COCCO2)CC1 (stereo partly shown) is 120
